Data credit: ChEMBL document CHEMBL3046371

# Tested on: Leishmania major
# test_details: Antileishmanial activity against promastigote form of Leishmania major after 72 hr by Neubauer counting analysis
# Format: functional, organism-based
Some compounds, each annotated with its measured IC50.

Past entries and their recorded results:
O=[N+]([O-])c1cccc(-c2nc3ccccc3[nH]2)c1    0.82 µg/mL
Fc1ccc(-c2nc3ccccc3[nH]2)cc1    0.79 µg/mL
O=[N+]([O-])c1ccc2[nH]c(-c3cccnc3)nc2c1    0.79 µg/mL
O=[N+]([O-])c1ccc(-c2nc3ccccc3[nH]2)cc1    0.71 µg/mL
CC(C)c1ccc(-c2nc3cc([N+](=O)[O-])ccc3[nH]2)cc1    0.8 µg/mL

QUERY: Need IC50, item `COc1cccc(-c2nc3cc([N+](=O)[O-])ccc3[nH]2)c1`
RESULT: 0.82 µg/mL

QUERY: Need IC50, item `O=[N+]([O-])c1ccccc1-c1nc2ccccc2[nH]1`
RESULT: 0.69 µg/mL
